# System under test: trypsin (UniProt P00760)
# Sequence (P00760 24-246): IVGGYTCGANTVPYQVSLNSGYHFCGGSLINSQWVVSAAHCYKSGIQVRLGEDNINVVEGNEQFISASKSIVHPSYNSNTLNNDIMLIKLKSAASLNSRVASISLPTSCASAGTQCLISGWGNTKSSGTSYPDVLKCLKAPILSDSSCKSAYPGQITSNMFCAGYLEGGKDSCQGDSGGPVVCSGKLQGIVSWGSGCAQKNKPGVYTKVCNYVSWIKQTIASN
# Protocol details: SPR
# Experimental context: one carboxy-dT at 3' end; embedded in imprinted polymer nanoparticle; SPR: PBST (10 mM phosphate buffered saline, pH 7.4, 0.01% Tween 20), 25 °C; nanoparticles immobilized on carboxymethyl dextran Au chips, protein 4-64 nM; n = 3
Measure: pKd
The value called pKd is obtained by taking minus log10 of the concentration in mol/L.

Note to self: pKd recorded for ATCTACGAATTCATCAGGGCTAAAGAGTGCAGAGTTACTTAG [AptaMIP-6 oligo] was 5.33

###

# System under test: trypsin (UniProt P00760)
# Protocol details: SPR
# Experimental context: two carboxy-dT, one at each end (positions 1 and 6 of Fig. 1); embedded in imprinted polymer nanoparticle; SPR: PBST (10 mM phosphate buffered saline, pH 7.4, 0.01% Tween 20), 25 °C; nanoparticles immobilized on carboxymethyl dextran Au chips, protein 4-64 nM; n = 3
Measure: Kd (µM)
Write the value in µM as a bare number.

Note to self: Kd recorded for ATCTACGAATTCATCAGGGCTAAAGAGTGCAGAGTTACTTAG [AptaMIP-5 oligo] was 8.95
